System: LS-513 (Colorectal Carcinoma)
Test: Bliss excess, mean over the matrix (fraction); higher = more synergy
Each entry below carries its reported Bliss excess.
I'd appreciate a reply containing only the number, no unit.

Worked examples follow.
molecule | Bliss excess
Cc1c2c(nn1C)CSCc1cc(n(C)n1)CSc1cc(c3ccccc3c1)OCCCc1c(C(=O)O)n(C)c3c-2c(Cl)ccc13 [AZD5991] + C1CN(CCC1(C(=O)N[C@@H](CCO)C2=CC=C(C=C2)Cl)N)C3=NC=NC4=C3C=CN4 [Capivasertib] (first compound max 1 µM, 7x7, partner max 3 µM) | -0.0343
COc1cccc(OCCCN)c1-c1cc(Nc2cnc(C#N)cn2)n[nH]1 [Prexasertib] + C=CCn1c(=O)c2cnc(Nc3ccc(N4CCN(C)CC4)cc3)nc2n1-c1cccc(C(C)(C)O)n1 [AZD1775] (first compound max 1 µM, partner max 1 µM) | 0.0763
O=C(c1cc(Cc2n[nH]c(=O)c3ccccc23)ccc1F)N1CCN(C(=O)C2CC2)CC1 [Olaparib] + CC1(C)CCC(CN2CCN(c3ccc(C(=O)NS(=O)(=O)c4ccc(NCC5CCOCC5)c([N+](=O)[O-])c4)c(Oc4cnc5[nH]ccc5c4)c3)CC2)=C(c2ccc(Cl)cc2)C1 [Venetoclax] (first compound max 10 µM, 7x7, partner max 1 µM) | -0.0498
CC(=O)c1c(C)c2cnc(Nc3ccc(N4CCNCC4)cn3)nc2n(C2CCCC2)c1=O [Palbociclib] + Cc1c2c(nn1C)CSCc1cc(n(C)n1)CSc1cc(c3ccccc3c1)OCCCc1c(C(=O)O)n(C)c3c-2c(Cl)ccc13 [AZD5991] (first compound max 10 µM, 7x7, partner max 1 µM) | -0.0235
CCN(CCO)CCCOc1ccc2c(Nc3cc(CC(=O)Nc4cccc(F)c4)[nH]n3)ncnc2c1 [AZD2811] + O=C(c1cc(Cc2n[nH]c(=O)c3ccccc23)ccc1F)N1CCN(C(=O)C2CC2)CC1 [Olaparib] (first compound max 1 µM, 7x7, partner max 10 µM) | -0.0158
Cn1cnc2c(F)c(Nc3ccc(Br)cc3Cl)c(C(=O)NOCCO)cc21 [Selumetinib] + CC(C)n1c(=O)n(C)c2cnc3cc(F)c(-c4ccc(OCCCN5CCCCC5)nc4)cc3c21 [AZD1390] (first compound max 10 µM, 7x7, partner max 0.3 µM) | -0.0395

Memo: NC1(C(=O)N[C@@H](CCO)c2ccc(Cl)cc2)CCN(c2ncnc3[nH]ccc23)CC1 [Capivasertib] + C[C@@H]1COCCN1C2=NC(=NC(=C2)C3(CC3)[S@](=N)(=O)C)C4=C5C=CNC5=NC=C4 [AZD6738] (first compound max 10 µM, 7x7, partner max 10 µM) , reported Bliss excess: -0.0697

Documented Bliss excess of COc1cccc(OCCCN)c1-c1cc(Nc2cnc(C#N)cn2)n[nH]1 [Prexasertib] + CN(C)CCCOc1ccc(-c2ccc3ncc4c(c3c2)n(C2CCOCC2)c(=O)n4C)cn1 [AZD0156] (first compound max 1 µM, 7x7, partner max 1 µM) : 0.0156

response.value for C[C@@H](Oc1cc(-c2cnn(C3CCNCC3)c2)cnc1N)c1c(Cl)ccc(F)c1Cl [Crizotinib] + CC1=C(C(=CC=C1)Cl)NC(=O)C2=CN=C(S2)NC3=CC(=NC(=N3)C)N4CCN(CC4)CCO [Dasatinib] (first compound max 10 µM, 7x7, partner max 2 µM) (field: Bliss excess) = -0.0485

Data point: NC1(C(=O)N[C@@H](CCO)c2ccc(Cl)cc2)CCN(c2ncnc3[nH]ccc23)CC1 [Capivasertib] + CC(C)n1c(=O)n(C)c2cnc3cc(F)c(-c4ccc(OCCCN5CCCCC5)nc4)cc3c21 [AZD1390] (first compound max 10 µM, 7x7, partner max 0.3 µM) ; Bliss excess = -0.0511

Please fill in: Bliss excess reported for C[C@@H](c1ccc2nccn2c1)n1nnc2ncc(-c3cnn(C)c3)nc21 [Savolitinib] + CC1(C)CCC(CN2CCN(c3ccc(C(=O)NS(=O)(=O)c4ccc(NCC5CCOCC5)c([N+](=O)[O-])c4)c(Oc4cnc5[nH]ccc5c4)c3)CC2)=C(c2ccc(Cl)cc2)C1 [Venetoclax] (first compound max 1 µM, 7x7, partner max 1 µM) = -0.0599

# Bliss excess of Cc1c2c(nn1C)CSCc1cc(n(C)n1)CSc1cc(c3ccccc3c1)OCCCc1c(C(=O)O)n(C)c3c-2c(Cl)ccc13 [AZD5991] + Nc1ccn([C@@H]2O[C@H](CO)[C@@H](O)C2(F)F)c(=O)n1 [Gemcitabine] (first compound max 1 µM, 7x7, partner max 0.3 µM) = -0.102

====

Tested on: IHH-4 (Thyroid Gland Carcinoma)
Test: Bliss excess, mean over the matrix (fraction); higher = more synergy
property: Bliss excess
// keep it numeric: no unit symbol after the value

compound | experimentalValue
N#Cc1cnc(Nc2cc(NC[C@H]3CNCCO3)c(C(F)(F)F)cn2)cn1 [SRA737] + CCc1c2c(nc3ccc(O)cc13)-c1cc3c(c(=O)n1C2)COC(=O)[C@]3(O)CC [SN-38] (first compound max 10 µM, 7x7, partner max 0.3 µM) | -0.0117

Please turn your attention to the following entry.
Just so you know, measured Bliss excess for COc1cccc(OCCCN)c1-c1cc(Nc2cnc(C#N)cn2)n[nH]1 [Prexasertib] + Cc1cc2ncnn2cc1Nc1ncc2c(n1)n(C1CCOCC1)c(=O)n2C [AZD7648] (first compound max 1 µM, 7x7, partner max 10 µM) came out at -0.0109

====

Test system: MDA-MB-157 (Breast Carcinoma)
Assay: Bliss excess, mean over the matrix (fraction); higher = more synergy
Measured Bliss excess, listed per entry.
Write the number on its own, no unit after it.

compound | Bliss excess
Cc1c2c(nn1C)CSCc1cc(n(C)n1)CSc1cc(c3ccccc3c1)OCCCc1c(C(=O)O)n(C)c3c-2c(Cl)ccc13 [AZD5991] + CC(=O)O[C@H]1C(=O)[C@@]2(C)[C@H]([C@H](OC(=O)c3ccccc3)[C@]3(O)C[C@H](OC(=O)[C@H](O)[C@@H](NC(=O)c4ccccc4)c4ccccc4)C(C)=C1C3(C)C)[C@]1(OC(C)=O)CO[C@@H]1C[C@@H]2O [Paclitaxel] (first compound max 1 µM, 7x7, partner max 3 µM) | 0.078

Summary for this compound, O=C(c1cc(Cc2n[nH]c(=O)c3ccccc23)ccc1F)N1CCN(C(=O)C2CC2)CC1 [Olaparib] + CC1(C)CCC(CN2CCN(c3ccc(C(=O)NS(=O)(=O)c4ccc(NCC5CCOCC5)c([N+](=O)[O-])c4)c(Oc4cnc5[nH]ccc5c4)c3)CC2)=C(c2ccc(Cl)cc2)C1 [Venetoclax] (first compound max 10 µM, 7x7, partner max 1 µM) : Bliss excess is -0.0406

====

Quick list: Bliss excess per entry.
Test system: IGR-1 (Melanoma)
Experiment: Bliss excess, mean over the matrix (fraction); higher = more synergy
Answer field: number only, no words.

compound | studySystem | Bliss excess
Cc1c2c(nn1C)CSCc1cc(n(C)n1)CSc1cc(c3ccccc3c1)OCCCc1c(C(=O)O)n(C)c3c-2c(Cl)ccc13 [AZD5991] + C=CCn1c(=O)c2cnc(Nc3ccc(N4CCN(C)CC4)cc3)nc2n1-c1cccc(C(C)(C)O)n1 [AZD1775] (first compound max 1 µM, partner max 1 µM) | IGR-1 (Melanoma) | 0.061
CN(CCO)CC[C@H](CSc1ccccc1)Nc1ccc(S(=O)(=O)NC(=O)c2ccc(N3CCC([C@@H](O)c4ccccc4-c4ccc(Cl)cc4)CC3)cc2)cc1S(=O)(=O)C(F)(F)F [AZD4320] + Cc1cc2ncnn2cc1Nc1ncc2c(n1)n(C1CCOCC1)c(=O)n2C [AZD7648] (first compound max 1 µM, 7x7, partner max 10 µM) | IGR-1 (Melanoma) | -0.0137

API: the following record is the query input.
CC(=O)c1c(C)c2cnc(Nc3ccc(N4CCNCC4)cn3)nc2n(C2CCCC2)c1=O [Palbociclib] + Cc1c2c(nn1C)CSCc1cc(n(C)n1)CSc1cc(c3ccccc3c1)OCCCc1c(C(=O)O)n(C)c3c-2c(Cl)ccc13 [AZD5991] (first compound max 10 µM, 7x7, partner max 1 µM) has a reported Bliss excess of 0.0047

====

Test system: OCI-AML2 (Acute Myeloid Leukemia)
Test: combination Emax (second highest fraction inhibited in the dose matrix, 72 h); higher = more inhibition; extreme values may be limits of the assay
property: combination Emax

Recorded combination Emax (compound CN(CCO)CC[C@H](CSc1ccccc1)Nc1ccc(S(=O)(=O)NC(=O)c2ccc(N3CCC([C@@H](O)c4ccccc4-c4ccc(Cl)cc4)CC3)cc2)cc1S(=O)(=O)C(F)(F)F [AZD4320] + CS(=O)(=O)CCNCc1ccc(-c2ccc3ncnc(Nc4ccc(OCc5cccc(F)c5)c(Cl)c4)c3c2)o1 [Lapatinib] (first compound max 1 µM, 7x7, partner max 10 µM) ): 1

Measured combination Emax of COc1cccc(OCCCN)c1-c1cc(Nc2cnc(C#N)cn2)n[nH]1 [Prexasertib] + CN(C)CCCOc1ccc(-c2ccc3ncc4c(c3c2)n(C2CCOCC2)c(=O)n4C)cn1 [AZD0156] (first compound max 1 µM, 7x7, partner max 1 µM) : 1

Lab book: combination Emax of C[C@@H](Nc1cc(F)cc(F)c1)c1cc(C(=O)N(C)C)cc2c(=O)cc(N3CCOCC3)oc12 [AZD8186] + CC(=O)c1c(C)c2cnc(Nc3ccc(N4CCNCC4)cn3)nc2n(C2CCCC2)c1=O [Palbociclib] (first compound max 10 µM, 7x7, partner max 10 µM) noted as 0.834
